Tested on: Sonic hedgehog protein (Shh)
Assay: small-molecule binders of Shh protein, primary screen, biochemical, small-molecule microarray, 635/667 nm fluorescence (AID 1151);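 note: Shh protein binding to compounds spotted on small-molecule microarray slides; score combines spot fluorescence intensity with signal-to-noise across triplicate slides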
Conditions: small-molecule microarray binding, 635 nm fluorescence; higher = more signal
In this section we review reported composite z-score values for a set of compounds.
// return a plain number; no unit text

Worked examples follow.
COc1ccc(NC(=O)O[C@H]2[C@H](OC(=O)Nc3ccccc3)[C@@H](OC(=O)Nc3ccccc3)[C@@H](OC)O[C@@H]2CO)cc1 : 1.17
CC(=O)NCCCC[C@@H]1NC(=O)[C@@H]2C[C@H](C(=O)NCCCC[N+](C)(C)C)[C@H](c3ccc(O)cc3)N2C1=O : 2.24
O=C1OCC=C[C@H]2OC34C=CCN(c5ccc(Cl)cc5)C(=O)[C@H]3N(CCO)C(=O)[C@@H]4[C@@H]12 (some centres undefined) : -0.889

Consider the additional compound presented here.
Report composite z-score under test system Sonic hedgehog protein (Shh) for COc1ccc(CCNC(=O)[C@@]2(Sc3ccc(C)cc3)CC(=O)N(C3Cc4ccccc4C3)[C@@H]2c2ccc(CO)cc2)cc1 . 2.07
